Tested on: SF-539
ASSAY_OVERVIEW: NCI tumour cell line growth inhibition, 48 h
The source made the active and inactive calls. Cut-off read from the data, not from the text of the source: active = GI50 up to about 1.1 µM and inactive = higher.
API: response.call in active, inactive

Past entries and their recorded results:
COMPOUND: N#CC(c1cc(Cl)ncn1)c1nc2ccccc2s1 (centres undefined)
CATEGORY: inactive

COMPOUND: O=c1[nH]/c(=C/c2ccc(OCc3ccccc3)cn2)c(=O)[nH]/c1=C/c1ccc(Cl)cc1
CATEGORY: inactive

COMPOUND: Cc1ccc([N+](=O)[O-])cc1NC(=O)C(=O)C1CCC2=C(Sc3ccccc3N2)C1=O (centres undefined)
CATEGORY: inactive

COMPOUND: O=c1c(Cc2c(O)oc3cc(O)ccc3c2=O)c(O)oc2cc(O)ccc12
CATEGORY: inactive

COMPOUND: S=c1c2ccccc2c(=S)n2n1CC=CC2
CATEGORY: inactive

COMPOUND: COc1ccc(OC)c(NC(=O)C(=O)C(C(=O)c2ccccc2F)C2OC(=O)c3ccccc32)c1 (centres undefined)
CATEGORY: inactive

Ask: Which result was noted for this compound in the test: `O=C(O)c1ccccc1/C=C1\Cc2cc3c(cc2C1=O)CCC3`
Result: inactive

Ask: Which result was noted for this compound in the test: `Cc1cc(-c2nc3ccccc3s2)ccc1NS(=O)(=O)O`
Result: active

----------
Observed GI50 values for HCT-15 are listed in what follows.
Kindly provide the numeric value in µM only, without the unit symbol.

# example entries with known answers
COMPOUND: C(=N/Nc1ccc(-c2nc3ccccc3[nH]2)cc1)/c1c(-c2ccccc2)[nH]c2ccccc12
EXPERIMENTAL_SYSTEM: HCT-15
ATTRIBUTE_MEASURED: GI50
READOUT_NUMBER: 0.409
//
COMPOUND: O=C1Nc2ccc(Br)cc2/C1=N/NC(=S)Nc1ccc([N+](=O)[O-])cc1
EXPERIMENTAL_SYSTEM: HCT-15
ATTRIBUTE_MEASURED: GI50
READOUT_NUMBER: 2.69
//
COMPOUND: COc1cc2c(c(OC)c1OC)-c1ccc(=O)c(O)cc1[C@@H](NC(C)=O)CC2
EXPERIMENTAL_SYSTEM: HCT-15
ATTRIBUTE_MEASURED: GI50
READOUT_NUMBER: 10.7
//
COMPOUND: Cc1cc(CCC(=O)NCCNc2c3ccccc3nc3ccccc23)cc(C)c1O[Si](C)(C)C(C)(C)C
EXPERIMENTAL_SYSTEM: HCT-15
ATTRIBUTE_MEASURED: GI50
READOUT_NUMBER: 0.282
//
COMPOUND: COc1cn2c(cc1=O)COc1ccc(-c3ccccc3)cc1-2
EXPERIMENTAL_SYSTEM: HCT-15
ATTRIBUTE_MEASURED: GI50
READOUT_NUMBER: 54.5

Ask: Please look up its GI50: CC1(C)[C@@H]2C[C@H]1c1cnc(-c3ccccn3)cc1[C@H]2C(O)[C@@H]1c2cc(-c3ccccn3)ncc2[C@H]2C[C@@H]1C2(C)C (stereo partly specified)
Result: 0.0718

Ask: Please look up its GI50: `O=C(O)c1ccccc1/C=C1\Cc2cc3c(cc2C1=O)CCC3`
Result: 16.3

----------
Test system: SW-620
ASSAY_OVERVIEW: NCI tumour cell line growth inhibition, 48 h
Active and inactive are the calls of the source. Cut-off read from the data, not from the text of the source: active = GI50 up to about 1.1 µM and inactive = higher.
API: response.call in TRUE for active, FALSE for inactive

Past entries and their recorded results:
SMILES_RECORD: Cc1nc2c(=O)n(-c3ccccc3)c3ccccc3c2o1
EXPERIMENTAL_SYSTEM: SW-620
CATEGORY: FALSE
--
SMILES_RECORD: CC(=O)O[C@H]1C(=O)[C@@]2(C)[C@H]([C@H](OC(=O)c3ccccc3)[C@]3(O)C[C@H](OC(=O)[C@H](O)[C@@H](NC(=O)c4ccccc4)C4CCCCC4)C(C)=C1C3(C)C)[C@]1(OC(C)=O)CO[C@@H]1C[C@@H]2O
EXPERIMENTAL_SYSTEM: SW-620
CATEGORY: TRUE
--
SMILES_RECORD: COc1ccc2c(=O)c3ccoc3[nH]c2c1
EXPERIMENTAL_SYSTEM: SW-620
CATEGORY: FALSE
--
SMILES_RECORD: CCOC(=O)Cn1nnc2ccc(Nc3nc4ccccc4nc3C(=O)OCC)cc21
EXPERIMENTAL_SYSTEM: SW-620
CATEGORY: FALSE

Ask: Which result was noted for this compound in the test: `CCN(CC)CCOC(c1ccccc1)c1ccccc1.CCOC(=O)Nc1ccc(S(=O)(=O)NCCCl)cc1.CCOC(=O)Nc1ccc(S(=O)(=O)NCCCl)cc1.Nc1ccc(C(=O)O)c(O)c1`
Result: FALSE

Ask: Which result was noted for this compound in the test: `Cc1c2c(cc3c1[nH]c1ccccc13)C=NCC2`
Result: FALSE
